Tested on: OVCAR-4
ASSAY_REMARKS: NCI tumour cell line growth inhibition, 48 h
Active and inactive are the calls of the source. Rule as the data show it: active = GI50 up to about 1.1 µM and inactive = higher.

| COMPOUND | GI50 |
| --- | --- |
| COc1ccc(OC)c2c1C(=O)C(Cl)=C(Cl)C2=O | 3.54 µM (inactive) |
| N#Cc1nc(CSCc2ccccc2)oc1N | > 100 µM (inactive) |
| COc1ccc2nc3ccc(OC)cc3c(SCC3CO3)c2c1 (stereo unspecified) | 19.5 µM (inactive) |
| COC(=O)[C@@H]1OC(C)(c2ccccc2)O[C@H]1C(=O)OC | > 100 µM (inactive) |
| NS(=O)(=O)c1ccc(NC(=S)N/C=C2\C(=O)Nc3ccccc3C2=O)cc1 | > 100 µM (inactive) |
| COC(=O)C1Cc2c(n(C)c3ccccc23)C(c2ccccc2)N1 (stereo unspecified) | 50.5 µM (inactive) |

* * *

Consider the following compounds and their measured GI50 readings.
System: SF-295
ASSAY_REMARKS: NCI tumour cell line growth inhibition, 48 h
Active and inactive are the calls of the source. Rule as the data show it: active = GI50 up to about 1.1 µM and inactive = higher.

| COMPOUND | GI50 |
| --- | --- |
| Cc1c(C)c([N+](=O)[O-])c2c(c1N)C(=O)c1ccccc1C2=O | > 100 µM (inactive) |
| CC(=O)c1ccc(O)c(CN(C2CCCCC2)C2CCCCC2)c1O | > 100 µM (inactive) |
| CC(=O)C(CN(C)Cc1ccccc1)C(c1ccccc1)c1c(O)c2ccccc2oc1=O (stereo not given) | > 100 µM (inactive) |
| Oc1c(Cl)c(Cl)c(O)c(-c2cnc(-c3ncc(-c4c(O)c(Cl)c(Cl)c(O)c4Cl)s3)s2)c1Cl | 19.9 µM (inactive) |
| NC1C/C(=N\O)c2c(Cl)sc(Cl)c21 (stereo not given) | 28.1 µM (inactive) |

* * *

Tested on: NCI-H460
ASSAY_REMARKS: NCI tumour cell line growth inhibition, 48 h
Calls of active or inactive are those of the source. No stated cut-off is given here; in the data, active = GI50 up to about 1.1 µM and inactive = higher. Where a SMILES comes first, the peptide text is derived from it. [ ]: non-standard residue; d: D form. The star is where a group is joined. NMeF = CN[CH](Cc1ccccc1)C(=O)O; NMeV = CN[CH](C(=O)O)C(C)C; Boc = CC(C)(C)OC(=O)*; OBn = c1ccc(CO*)cc1
Outcomes: active, inactive

| COMPOUND | LABEL_CLASS |
| --- | --- |
| CCC(C)(C)c1ccc(OCCCCNC(=O)c2ccc3ccccc3c2O)c(C(C)(C)CC)c1 | inactive |
| COC(=O)c1cc2ccc(OC(C)=O)c(OC(C)=O)c2cn1 | inactive |
| O=C(c1ccccc1)c1cn(/N=C\c2ccccc2)c(=O)nc1-c1ccccc1 | inactive |
| COc1cc2c(cc1OCCCCOc1cc3c(cc1OC)C(=O)N1CCC[C@H]1C(=O)N3)N=C[C@@H]1CCCN1C2=O | inactive |
| O/N=C1/C(=C/c2ccc3c(c2)OCO3)CCCC1C(NO)c1ccc2c(c1)OCO2 (stereo not drawn) | inactive |
| O=C1CSC2(CCN(CCCN3c4ccccc4Sc4ccc(Cl)cc43)CC2)N1 | inactive |
| CCOC(=O)c1nc2ccc(C(F)(F)F)cc2nc1Oc1ccc(C#N)cc1 | inactive |
| O=[N+]([O-])c1cccc(C2=NOC(C3CCCCC3)C2)c1 (stereo not drawn) | inactive |
| COc1cccc(C(=O)Oc2ccc(OS(=O)(=O)c3ccc(C)cc3)cc2)c1C#N | inactive |
| CCOC(=O)C1=CCOc2cc(N(C)C)ccc21 | inactive |
| CCSc1nc(N2CCOCC2)c2cn[nH]c2n1 | inactive |
| O=C1C(NCCc2cc(Cl)c(O)c(Cl)c2)=CC(=O)c2[nH]cnc21 | inactive |
| O=C(COc1ccccc1)N(C(=O)N1CCN(c2ccccc2)CC1)S(=O)(=O)c1ccccc1 | inactive |
| C[C@H]1CC(=O)C2=CCCC3(SCCCS3)[C@@H]2[C@H]1CO | inactive |
| Cc1cc(NS(=O)(=O)c2ccc(Nc3c4ccccc4nc4c(C(=O)N5CCN(CCO)CC5)ccc(Cl)c34)cc2)no1 | inactive |
| CN(O)C(=O)c1cccc(Cl)c1 | inactive |
| CC(=O)c1ccc(O)c(CN(C2CCCCC2)C2CCCCC2)c1O | inactive |
| COc1cc(NS(C)(=O)=O)ccc1NCc1c[nH]c2ccc3ncccc3c12 | inactive |
| Oc1c(Cl)c(Cl)c(O)c(-c2cnc(-c3ncc(-c4c(O)c(Cl)c(Cl)c(O)c4Cl)s3)s2)c1Cl | inactive |
| COc1ccc(C(=O)O)c2c(=O)c3ccccc3[nH]c12 | inactive |
| CN1CCC/C1=C1/C(=O)N(c2ccccc2)N=C1c1ccc[nH]1 | inactive |
| O=C(c1cccnc1)N1N=C(c2ccc(Cl)cc2)CC1(O)c1cc(F)c(Cl)cc1Cl (stereo not drawn) | inactive |
| Cc1nc(-c2cccnc2)sc1C(=O)/C=C/c1ccc(Cl)cc1Cl | inactive |
| COc1cc(/C=C\c2ccc(C)cc2)cc(OC)c1OC | active |
| C=C(NC(=O)C(=C)NC(=O)c1csc(C2=NC3c4csc(n4)C4NC(=O)c5csc(n5)C(C(C)(O)C(C)O)NC(=O)C5CSC(=N5)/C(=C/C)NC(=O)C(C(C)O)NC(=O)c5csc(n5)C3(CC2)NC(=O)C(C)NC(=O)C(=C)NC(=O)C(C)NC(=O)C(C(C)CC)NC2C=Cc3c(C(C)O)cc(nc3C2O)C(=O)OC4C)n1)C(N)=O (stereo not drawn) | inactive |
| COc1ccc(CN(CCc2c[nH]c3ccccc23)Cc2ccc(OC)cc2)cc1 | inactive |
| CC(C)C(NC(=O)OC(C)(C)C)C(=O)N(C)C(Cc1ccccc1)C(=O)N(C)C(C(=O)N(C)C(C(=O)OCc1ccccc1)C(C)C)C(C)C (stereo not drawn) (Boc-V[NMeF][NMeV][NMeV]-OBn; configuration not given here) | inactive |
| Cc1nc2c(o1)/C(=N\c1ccccc1)c1ccccc1C2=O | inactive |
| O=[N+]([O-])c1ccc(NN/N=N/c2ccc(-c3nc4ccccc4s3)cc2)c([N+](=O)[O-])c1 | inactive |
| CCC1(CC)C(=O)NC(=O)NC1=S | inactive |
| CCNc1nc2c(ncn2C2CC(O)C(COP(=O)(O)O)O2)c(=O)[nH]1 (stereo not drawn) | inactive |
| CCC1OC(=O)C(C)C(OC2CC(C)(O)C(O)C(C)O2)C(C)C(O)C(C)(O)CC(C)C(=O)C(C)C(O)C1C (stereo not drawn) | inactive |
| O=C1CSC(c2ccc([N+](=O)[O-])cc2)N1c1nc(-c2ccc3c(c2)CCCC3)cs1 (stereo not drawn) | inactive |
| O=C1OC(=O)C2C1C(c1ccccc1[N+](=O)[O-])C=C(c1ccco1)N2c1ccncc1 (stereo not drawn) | inactive |
| CC(C)c1nc2cc(C(F)(F)F)ccc2[nH]c1=O | inactive |
| CC(=O)NC1=C(NCCN(C)C)C(=O)c2ccccc2C1=O | inactive |
| CC(=C/C=C/C=C(C)\C=C\C=C(\C)C(=O)O)/C=C/C=C(/C)C(=O)O | inactive |
| O=C(CC(NC(=O)C(F)(F)F)C(=O)O)OCc1ccccc1 (stereo not drawn) | inactive |
